Tested on: Porphyromonas gingivalis
Assay: minimum inhibitory concentration (MIC) assay against P. gingivalis
Type: cell-based
Details: Porphyromonas gingivalis; against P. gingivalis; Table 1; read-out: MIC
value-type: MIC (µg/mL)
One number for each entry, in µg/mL.

The examples below pair each entry with its known result.
C=C(C)[C@@H]1CCC(C)=C[C@H]1c1c(O)cc(CCCCC)c(C(=O)O)c1O    0.39
CCCCCc1cc(O)c2c(c1)OC(C)(CCC=C(C)C)C=C2 (stereo not shown)    1.56
CCCCCc1cc(O)c2c(c1)OC(C)(C)c1ccc(C)cc1-2    3.12
C=C(C)[C@@H]1CCC(C)=C[C@H]1c1c(O)cc(CCC)cc1O    3.12

Query: Look at this compound and give its reported MIC. `CCCCCc1cc(O)c(C/C=C(\C)CCC=C(C)C)c(O)c1`
Response: 0.78

Numbers sourced from patent US20230037975A1.
